- Assay Protocol: Cytotoxicity against African green monkey Vero cells assessed as cell growth inhibition after 48 hrs by MTT assay
- Type: toxicity, cell-based
- Condition Set: African green monkey (Chlorocebus sabaeus)
Measurement Label: IC50 at 48 h

Here are 2 compounds together with their reported answers.
1) O=C(N/N=C/c1c(-c2cc3ccccc3oc2=O)[nH]c2ccccc12)c1ccc(Cl)cc1F :: > 200 µM
2) O=C(N/N=C/c1c(-c2cc3ccccc3oc2=O)[nH]c2ccccc12)c1ccccc1F :: > 200 µM

input: What does the record list as IC50 at 48 h for CC[C@]1(O)C[C@H]2CN(CCc3c([nH]c4ccccc34)[C@@](C(=O)OC)(c3cc4c(cc3OC)N(C=O)[C@H]3[C@@](O)(C(=O)OC)[C@H](OC(C)=O)[C@]5(CC)C=CCN6CC[C@]43[C@@H]65)C2)C1 ?
output: 0.9 µM
